Experiment: self-splicing fitness, log relative to wild type (ln ratio); higher = more splicing; Tetrahymena group I intron in knt gene, E. coli kanamycin selection, DiMSum; sequences stand for … in CUCUCU…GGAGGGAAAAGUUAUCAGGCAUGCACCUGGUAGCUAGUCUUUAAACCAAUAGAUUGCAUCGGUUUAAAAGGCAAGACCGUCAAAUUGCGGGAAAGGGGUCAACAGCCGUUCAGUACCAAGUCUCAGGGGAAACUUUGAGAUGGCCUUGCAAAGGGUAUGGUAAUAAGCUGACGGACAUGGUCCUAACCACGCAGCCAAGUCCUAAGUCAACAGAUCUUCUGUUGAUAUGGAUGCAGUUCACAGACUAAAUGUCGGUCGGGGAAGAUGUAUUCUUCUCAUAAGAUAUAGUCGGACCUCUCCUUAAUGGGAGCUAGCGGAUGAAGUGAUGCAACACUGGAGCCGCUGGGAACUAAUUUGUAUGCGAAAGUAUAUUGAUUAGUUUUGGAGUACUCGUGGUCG;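 further: selection with 25 µg/mL kanamycin versus none on LB agar overnight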
Settings: 37 °C
self-splicing fitness (ln): recorded values

# annotated cases, reported self-splicing fitness (ln) shown
UUGGAGCAAUAUUACGACCU	-0.7
GGCCAGCAAUAUUACGAUGG	-2.67
AAUGAGCAAUAUUACGAGUA	-2.54
UAUUAGCAAUAUUACGUCCU	-0.635
GUCUAGCAAUAUUACGUGCA	-0.535

Provide one value: measured self-splicing fitness (ln) of "AGGGAGCAAUAUUACGUUAG"
-3.66

Output measured self-splicing fitness (ln) for this item: "UUUCAGCAAUAUUACGUUAG"
-0.474

Indicate its recorded self-splicing fitness (ln); the sequence in question is "UCGAAGCAAUAUUACGCACU"
-0.962

====

Experiment: self-splicing fitness, log relative to wild type (ln ratio); higher = more splicing; Tetrahymena group I intron in knt gene, E. coli kanamycin selection, DiMSum; sequences stand for … in CUCUCU…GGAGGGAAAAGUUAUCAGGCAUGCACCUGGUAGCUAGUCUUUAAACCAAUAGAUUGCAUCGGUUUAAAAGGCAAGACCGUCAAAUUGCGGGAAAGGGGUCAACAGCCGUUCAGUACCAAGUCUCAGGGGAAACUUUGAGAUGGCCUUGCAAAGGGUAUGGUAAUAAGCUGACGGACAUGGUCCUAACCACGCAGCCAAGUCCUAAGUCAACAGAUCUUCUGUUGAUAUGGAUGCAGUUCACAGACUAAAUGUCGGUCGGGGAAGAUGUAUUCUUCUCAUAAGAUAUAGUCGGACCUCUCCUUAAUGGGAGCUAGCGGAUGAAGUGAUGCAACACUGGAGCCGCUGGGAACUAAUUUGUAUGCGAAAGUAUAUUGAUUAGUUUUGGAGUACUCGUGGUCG
Conditions: 37 °C
Kind request: treat -2 as inclusive, so self-splicing fitness (ln) at -2 or higher is 1, anything lower is 0.

Use the examples below as a reference point.
CCAGAGCAAUAUUACGGCUC	0
UGCCAGCAAUAUUACGGUCG	1
AGGCAGCAAUAUUACGUCGC	0

Entry "ACUUAGCAAUAUUACGUGGC" : is its self-splicing fitness (ln) no less than -2?
0

====

Test: self-splicing fitness, log relative to wild type (ln ratio); higher = more splicing; Tetrahymena group I intron in knt gene, E. coli kanamycin selection, DiMSum; sequences stand for … in CUCUCU…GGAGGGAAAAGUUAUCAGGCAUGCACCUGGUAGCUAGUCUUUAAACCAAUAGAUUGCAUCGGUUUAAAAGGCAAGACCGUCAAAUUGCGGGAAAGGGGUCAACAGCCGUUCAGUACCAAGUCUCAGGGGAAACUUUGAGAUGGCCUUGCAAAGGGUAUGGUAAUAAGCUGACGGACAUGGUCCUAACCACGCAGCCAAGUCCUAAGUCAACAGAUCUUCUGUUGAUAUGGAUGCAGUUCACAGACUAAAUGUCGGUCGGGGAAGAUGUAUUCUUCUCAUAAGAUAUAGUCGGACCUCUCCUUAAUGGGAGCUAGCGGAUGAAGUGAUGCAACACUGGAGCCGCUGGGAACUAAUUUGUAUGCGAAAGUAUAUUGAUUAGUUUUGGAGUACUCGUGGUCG
Conditions: 37 °C
Attribute: self-splicing fitness (ln)
// return a plain number; no unit text

Solved cases below.
AAAUAGCAAUAUUACGUUUU	-1.05
GCCAAGCAAUAUUACGAAAG	-0.702
AUGUAGCAAUAUUACGCCGG	-0.942

Return self-splicing fitness (ln) (reported value) for this sequence: "UAUCAGCAAUAUUACGUCAU"
-1.42

Return self-splicing fitness (ln) (reported value) for this sequence: "GAAUAGCAAUAUUACGUGGG"
-2.81

Let me know recorded self-splicing fitness (ln) for "GAUCAGCAAUAUUACGGGGG" , thanks.
-2.51

Specify reported self-splicing fitness (ln) for the sequence shown: "AAAAAGCAAUAUUACGCCCU"
0.202

Could you please provide reported self-splicing fitness (ln) for "CAUCAGCAAUAUUACGUCGA" ? Thanks!
-2.66

Give the value of self-splicing fitness (ln) reported for the following: "GGUUAGCAAUAUUACGGGCA"
-0.182

Quick one: give measured self-splicing fitness (ln) for "GCCUAGCAAUAUUACGACUG"
-2.97

Dear colleague, please send me the reported self-splicing fitness (ln) for "UAUCAGCAAUAUUACGCGGC" when you can.
-1.62

Identify measured self-splicing fitness (ln) corresponding to "CAUAAGCAAUAUUACGAAAG"
-0.268

Check the records and state self-splicing fitness (ln) for "AGACAGCAAUAUUACGGGUU"
-1.12

Specify reported self-splicing fitness (ln) for the sequence shown: "GGUUAGCAAUAUUACGCAUG"
-1.57

Give reported self-splicing fitness (ln) value for "AAUUAGCAAUAUUACGUUAC"
-1.74

Quick one: give measured self-splicing fitness (ln) for "AACCAGCAAUAUUACGCCAA"
-1.67
